Test system: FT3469 (normal neural stem cell line);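 also: cell Painting imaging in 384-well plates, CellProfiler features reduced to at least 20 principal components, Euclidean distance versus same-plate DMSO vehicle wells (0.1% v/v), median over six images per well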
Assay details: phenotypic distance (Euclidean, principal components) from DMSO controls (arbitrary units); higher = stronger morphological change
Measurement conditions: 37 nM; exposure time: 72 h
Where a name gives a salt, the structure may show the parent alone.
Label scheme for phenotypic distance: lower than 1 is class 0, 1 and above is class 1.

Molecule: COc1cc2c(cc1-c1c(C)noc1C)ncc1[nH]c(=O)n([C@H](C)c3ccccn3)c12
Assigned category: class 1

Molecule: CCC[C@@H]1C[C@@H](C(=O)N[C@@H]([C@H]2O[C@H](SC)[C@H](O)[C@@H](O)[C@H]2O)[C@@H](C)O)N(C)C1 [Lincomycin hydrochloride]
Assigned category: class 0

Molecule: Cn1ncnc1[C@H]1c2n[nH]c(=O)c3cc(F)cc(c23)N[C@@H]1c1ccc(F)cc1
Assigned category: class 1

Molecule: CC[C@H]1CN2CCc3cc(OC)c(OC)cc3[C@@H]2C[C@@H]1C[C@H]1NCCc2cc(OC)c(OC)cc21 [Emetine dihydrochloride hydrate]
Assigned category: class 0

Molecule: COc1ccc(/C=C\c2cc(OC)c(OC)c(OC)c2)cc1OP(=O)(O)O [Fosbretabulin Disodium]
Assigned category: class 0

Molecule: Cc1cc(/C=C/c2ccc3cc(N(C)C)ccc3[n+]2C)c(C)n1-c1ccccc1 [Pyrvinium pamoate]
Assigned category: class 1

Alright, here's another molecule for you.
Test whether the molecule "Cc1c2ccncc2c(C)c2c1[nH]c1ccccc12" records phenotypic distance of 1 or higher.
class 0
